Source: ChEMBL document CHEMBL2321745

# key: entry, value: Vd
assay: Volume of distribution at steady state in Sprague-Dawley rat at 1 mg/kg, iv; type: ADME, organism-based; design: dose 1 mg/kg, route intravenous; settings: in vivo, read-out: Vdss
Numbers only here, please. The scale is L/kg.

Below, each entry is followed by its recorded Vd result.
O=C(N[C@H]1CCC[C@H](CO)C1)C1CCN(c2nc3cc(Cl)c(-c4ccc(Cl)cc4)cc3o2)CC1 = 2.9
Cc1cc2oc(N3CCC(C(=O)N[C@H]4CCC[C@H](C(C)(C)O)C4)CC3)nc2cc1Cl = 2
CS(=O)(=O)[C@H]1CCC[C@H](NC(=O)C2CCN(c3nc4cc(Cl)c(C(F)(F)F)cc4o3)CC2)C1 = 2.1

Here is another compound to look at.
According to the records, this compound CC(C)(O)[C@H]1CCC[C@H](NC(=O)C2CCN(c3nc4cc(Cl)c(C(F)(F)F)cc4o3)CC2)C1 displays Vd of 4.6

* * *

assay: Half life in Sprague-Dawley rat at 1 mg/kg, po; type: ADME, organism-based; parameters: dose 1 mg/kg, route oral; conditions: in vivo
Some compounds, each annotated with its measured half-life.
Give the number; min is assumed, so skip it.

Completed entries (count: 2):
Cc1cc2oc(N3CCC(C(=O)N[C@H]4CCC[C@H](C(C)(C)O)C4)CC3)nc2cc1Cl = 32.4
CS(=O)(=O)[C@H]1CCC[C@H](NC(=O)C2CCN(c3nc4cc(Cl)c(C(F)(F)F)cc4o3)CC2)C1 = 1020

Now take the following compound into account.
Note to self: half-life recorded for CC(C)(O)[C@H]1CCC[C@H](NC(=O)C2CCN(c3nc4cc(Cl)c(C(F)(F)F)cc4o3)CC2)C1 was 324

* * *

experiment: Cmax in Sprague-Dawley rat at 1 mg/kg, po; assay type: ADME, organism-based; parameters: dose 1 mg/kg, route oral; settings: in vivo
Catalogue of Cmax readings, one per entry.
Give just the numeric value; nM need not be written.

Past entries and their recorded results:
CC(C)(O)[C@H]1CCC[C@H](NC(=O)C2CCN(c3nc4cc(Cl)c(C(F)(F)F)cc4o3)CC2)C1 = 120
CS(=O)(=O)[C@H]1CCC[C@H](NC(=O)C2CCN(c3nc4cc(Cl)c(C(F)(F)F)cc4o3)CC2)C1 = 150

Now consider the entry below.
Recorded result, O=C(N[C@H]1CCC[C@H](CO)C1)C1CCN(c2nc3cc(Cl)c(-c4ccc(Cl)cc4)cc3o2)CC1 , Cmax: 200
